target: human GLP1-R (Homo sapiens); test: GLP1-R internalization assay in HEK293 cells; type: cell-based; settings: HEK293 cells expressing SNAP-GLP-1R; read-out: GLP1R Internalization EC50
Sequence (P43220 24-463): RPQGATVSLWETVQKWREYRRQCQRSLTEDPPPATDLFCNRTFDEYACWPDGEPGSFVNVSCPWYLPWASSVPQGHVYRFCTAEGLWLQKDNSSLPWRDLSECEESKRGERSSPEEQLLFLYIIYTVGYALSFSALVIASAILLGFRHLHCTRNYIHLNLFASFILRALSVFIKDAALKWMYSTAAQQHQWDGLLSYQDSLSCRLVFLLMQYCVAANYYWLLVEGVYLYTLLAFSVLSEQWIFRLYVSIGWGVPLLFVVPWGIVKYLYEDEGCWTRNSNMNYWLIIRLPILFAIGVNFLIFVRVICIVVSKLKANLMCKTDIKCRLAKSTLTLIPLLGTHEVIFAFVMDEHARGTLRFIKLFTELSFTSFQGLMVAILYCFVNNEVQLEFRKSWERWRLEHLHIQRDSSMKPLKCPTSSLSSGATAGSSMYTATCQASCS
Starred links: 1 amine or outer side, 2 acyl side, 3 side chain; linkers in the order of their positions; H or OH if unused. Non-standard residues stand in square brackets, D forms with d. Groups on a side chain read outwards from the residue. *: point of attachment. C20 diacid = O=C(O)CCCCCCCCCCCCCCCCCCC(=O)*; C18 diacid = O=C(O)CCCCCCCCCCCCCCCCC(=O)*; αMePhe(2-F) = C[C@](N)(Cc1ccccc1F)C(=O)O; γGlu = O=C(O)[C@H](CCC(=O)[*:2])N[*:1]; αMeL = CC(C)C[C@](C)(N)C(=O)O; Orn = NCCC[C@H](N)C(=O)O; AEEA = NCCOCCOCC(=O)O; Aib = CC(C)(N)C(=O)O
Measure: pEC50
Just the number, please; pEC50 means minus log10 of the concentration in mol/L.

Solved entries (count: 2):
> print(dat)
                                  substance  obs.value
1  H-Y[Aib]QGTFTSDFSI[αMeL]LDKK([AEEA-γGlu-C20 diacid])AQ[Aib]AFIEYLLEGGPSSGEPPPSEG-NH2 [Example 288]       7.52
2  H-Y[Aib]QGT[αMePhe(2-F)]TSDYSILLDKIAAK([AEEA-γGlu-C20 diacid])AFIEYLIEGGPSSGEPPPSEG-NH2 [Example 296]       7.72

Consider the record given below.
### Prompt So what does the record say about pEC50 for H-Y[Aib]QGTFTSDFS[Orn][αMeL]LDKK([AEEA-γGlu-C18 diacid])AQ[Aib]AFIEYLLAGGPSSGAPPPEGE-NH2 [Example 99] ?
### Response 7.24

###

molecular target: hGcgR (Homo sapiens); assay: Functional cAMP activation in the presence of 0.1% casein (no HSA); format: cell-based; conditions: in the presence of 0.1% casein (no HSA); geometric mean; read-out: Relative cAMP EC50, hGcgR;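 also: intracellular cAMP rise after 30 min at 37 °C, read by HTRF against a cAMP standard curve, scaled from buffer only (0%) to maximal control ligand response (100%)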
Sequence (P47871 26-477): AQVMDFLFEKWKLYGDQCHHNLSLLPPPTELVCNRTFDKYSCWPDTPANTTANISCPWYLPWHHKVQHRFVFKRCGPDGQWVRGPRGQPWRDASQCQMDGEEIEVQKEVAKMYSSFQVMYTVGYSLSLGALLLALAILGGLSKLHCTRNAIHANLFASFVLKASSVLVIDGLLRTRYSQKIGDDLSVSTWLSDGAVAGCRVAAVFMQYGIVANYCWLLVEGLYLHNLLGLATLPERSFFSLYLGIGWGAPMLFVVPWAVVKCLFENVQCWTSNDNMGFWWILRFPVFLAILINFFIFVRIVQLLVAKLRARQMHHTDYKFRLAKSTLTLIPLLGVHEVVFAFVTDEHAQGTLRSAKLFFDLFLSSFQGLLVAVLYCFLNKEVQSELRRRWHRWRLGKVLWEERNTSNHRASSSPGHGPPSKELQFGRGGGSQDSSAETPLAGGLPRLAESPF
Starred links: 1 amine or outer side, 2 acyl side, 3 side chain; linkers in the order of their positions; H or OH if unused. Non-standard residues stand in square brackets, D forms with d. Groups on a side chain read outwards from the residue. *: point of attachment. C20 diacid = O=C(O)CCCCCCCCCCCCCCCCCCC(=O)*; C18 diacid = O=C(O)CCCCCCCCCCCCCCCCC(=O)*; γGlu = O=C(O)[C@H](CCC(=O)[*:2])N[*:1]; αMe4Pal = C[C@](N)(Cc1ccncc1)C(=O)O; 4Pal = N[C@@H](Cc1ccncc1)C(=O)O; αMeL = CC(C)C[C@](C)(N)C(=O)O; Orn = NCCC[C@H](N)C(=O)O; AEEA = NCCOCCOCC(=O)O; Aib = CC(C)(N)C(=O)O
Form field: pEC50 (one value per entry).
API: returns pEC50 as number; meaning -log10 of concentration in mol/L.

> print(dat)
                                  substance  obs.value
1  H-Y[Aib]QGTFTSDFS[Orn][αMeL]LDKK([AEEA-γGlu-C20 diacid])AQ[Aib]AFIEWLLAGGPSSGEPPPSGE-NH2 [Example 103]       7.98

Consider now this further substance.
### Prompt Look up pEC50 for this substance: H-Y[Aib]QGTFTSD[4Pal]SK[αMeL]LDKK([AEEA-γGlu-C18 diacid])AQ[αMe4Pal]AFIE[αMe4Pal]LIE[Aib]GPSSGAPPPSGS-NH2 [Example 916]
### Response 8.96
